Give measured growth for each item. Keep answers brief.
Tested on: MDA-MB-231 breast
Assay: NCI-60 one-dose screen, 48 h (100 = growth as untreated, 0 = no growth, -100 = all killed)
Details: 10 µM unless noted
This is part of a sample that, as a whole, favours compounds with a hit. Of some 83,000 tested, about 20% had one in any assay.
Answers are plain numbers, in %.

Example results:
Requested field: growth. Item: `CNC(=O)c1cc(Oc2cccc3nc(Nc4ccc(F)c(Cl)c4)ccc23)ccn1`
62.7

And for `CCOC(CN=Cc1cc(C)c2[nH]c3ccccc3c2c1C)OCC` ?
108

Cool, now `COc1ccc(-c2nc(SCCC(C)C)nc(N/N=C\c3cccc(Cl)c3)c2C#N)cc1`
53

Next up: `Cn1c(=O)c2[nH]c(NN)nc2n(C)c1=O`
116

Repeat for the following molecule: `COc1ccc(-c2nc3c(N)c(CO)c(C)nc3o2)cc1`
111

Kindly review the next molecule as well.
Entry `COc1cc(C(=O)/C=C/c2c(-c3ccc(F)cc3)nc3sc(C)cn23)cc(OC)c1OC` has what growth?
38.2
